// reported inhibition for each item listed
TEST TARGET: Discoidin domain-containing receptor 2 (Homo sapiens) (UniProt Q16832);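 also: reported values are mean percent inhibition of DDR2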
Sequence (whole entry): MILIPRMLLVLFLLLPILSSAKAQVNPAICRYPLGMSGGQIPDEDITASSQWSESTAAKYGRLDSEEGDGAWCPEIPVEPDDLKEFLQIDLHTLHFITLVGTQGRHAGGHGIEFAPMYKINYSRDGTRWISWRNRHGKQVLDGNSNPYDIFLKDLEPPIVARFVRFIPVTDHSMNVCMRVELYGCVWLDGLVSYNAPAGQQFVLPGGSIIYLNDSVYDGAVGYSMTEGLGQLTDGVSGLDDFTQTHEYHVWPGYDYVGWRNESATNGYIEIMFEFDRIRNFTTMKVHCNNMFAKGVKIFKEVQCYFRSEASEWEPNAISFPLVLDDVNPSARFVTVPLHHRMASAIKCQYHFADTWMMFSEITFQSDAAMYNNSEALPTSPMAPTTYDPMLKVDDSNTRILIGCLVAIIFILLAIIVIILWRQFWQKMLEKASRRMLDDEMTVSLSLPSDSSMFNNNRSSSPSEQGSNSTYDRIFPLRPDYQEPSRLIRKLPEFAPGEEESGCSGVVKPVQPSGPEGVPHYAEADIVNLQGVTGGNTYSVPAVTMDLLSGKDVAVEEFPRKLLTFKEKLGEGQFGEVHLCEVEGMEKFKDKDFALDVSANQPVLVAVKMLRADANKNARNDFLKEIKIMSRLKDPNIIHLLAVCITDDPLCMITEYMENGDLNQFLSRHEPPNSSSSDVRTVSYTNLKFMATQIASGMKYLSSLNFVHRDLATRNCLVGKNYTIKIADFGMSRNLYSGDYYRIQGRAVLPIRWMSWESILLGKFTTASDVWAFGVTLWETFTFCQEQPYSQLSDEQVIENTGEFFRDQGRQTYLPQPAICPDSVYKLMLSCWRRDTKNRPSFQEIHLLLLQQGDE
CONDITION SET: at 0.1 µM
OBSERVED PROPERTY: inhibition (%)

compound=COc1cccc(-n2cnc3c(N/N=C/c4ccncc4)ncnc32)c1 numeric_readout=-0.19
compound=Fc1ccc(-c2ncn(CCCN3CCOCC3)c2-c2ccncc2)cc1 numeric_readout=0.11
compound=COc1cc(Nc2ncc(-c3ccccc3)o2)cc(OC)c1OC numeric_readout=0.74
compound=COc1cc2ncn(-c3cc(OCc4ccccc4C(F)(F)F)c(C(C)=O)s3)c2cc1OC numeric_readout=3.54
compound=COc1cc(N2CCN(C(C)C)CC2)ccc1Nc1nc(Nc2ccc(F)cc2C(=O)NC[C@@H](O)CO)c2cc[nH]c2n1 numeric_readout=0.31
compound=Fc1ccc(-c2ncn(C3CCNCC3)c2-c2ccnc(Oc3ccc(F)c(F)c3)n2)cc1 numeric_readout=1.67
compound=NC(=O)c1cc(-c2ccc(F)cc2)cc(-c2ccncc2)c1N numeric_readout=1.42
compound=Cc1nnc(-c2ccc(C)c(-c3ccc(C(=O)NCc4ccc(Cl)cc4)cc3)c2)o1 numeric_readout=0.22
compound=C[C@@H](Oc1cc(-n2cnc3ccc(OCC4CCN(C)CC4)cc32)sc1C(N)=O)c1ccccc1Cl numeric_readout=2.64
compound=C#Cc1cccc(Nc2ncnc3ccc(OCCCCNCCS(C)(=O)=O)cc23)c1 numeric_readout=4.72
compound=CN(c1ccc(NC(=O)Nc2c(Cl)cccc2Cl)cc1)c1ccnc(Nc2cccc(CS(C)(=O)=O)c2)n1 numeric_readout=11.1
compound=CN(C)CCOc1ccc(-c2cc(-c3ccc4c(c3)CCC4=NO)c(-c3ccncc3)o2)cc1 numeric_readout=0.26
compound=CCc1nccc2c1nc(-c1nonc1N)n2CC numeric_readout=1.17
compound=CCS(=O)(=O)c1ccc(OC)c(Nc2ncc(-c3ccccc3Cl)o2)c1 numeric_readout=3.73
compound=CCS(=O)(=O)c1ccc(OC)c(Nc2ncc(-c3cccc(-c4ccccc4F)c3)o2)c1 numeric_readout=4.99
compound=O=C1NC(=O)C(c2cccc(Cl)c2)=C1Nc1ccc(Cl)c(C(=O)O)c1 numeric_readout=3.06
compound=N#Cc1ccc(Oc2nccc(-c3c(-c4ccc(F)cc4)ncn3C3CCNCC3)n2)cc1 numeric_readout=6.23
compound=CN1CCN(CCCNc2nc3ccc(Oc4ccc(NC(=O)Nc5cc(C(F)(F)F)ccc5F)cc4)cc3[nH]2)CC1 numeric_readout=73.9
compound=Cc1ccc(C(=O)NC(C)C)cc1-c1ccc(C(=O)NCC2CC2)cc1 numeric_readout=-0.36
compound=FC(F)(F)c1cccc(Nc2nccc(-c3cnn4nc(-c5ccccc5)ccc34)n2)c1 numeric_readout=0.05
